The values you see were collected from ChEMBL document CHEMBL1147470.

assayed_system: Sphingosine 1-phosphate receptor 4 (Homo sapiens)
Sequence (O95977 whole entry): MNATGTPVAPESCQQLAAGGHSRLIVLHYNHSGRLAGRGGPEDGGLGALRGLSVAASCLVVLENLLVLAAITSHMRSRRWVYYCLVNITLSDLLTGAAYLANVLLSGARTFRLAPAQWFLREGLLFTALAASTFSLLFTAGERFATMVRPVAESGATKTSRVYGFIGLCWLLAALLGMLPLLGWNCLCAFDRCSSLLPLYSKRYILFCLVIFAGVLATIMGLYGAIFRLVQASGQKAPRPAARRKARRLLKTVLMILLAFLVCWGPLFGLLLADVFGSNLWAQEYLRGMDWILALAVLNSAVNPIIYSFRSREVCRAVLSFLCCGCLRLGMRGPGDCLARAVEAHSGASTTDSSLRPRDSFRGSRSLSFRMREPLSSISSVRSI
test: Binding affinity to human sphingosine 1-phosphate receptor 4 expressed in CHO cells was determined by using [33P]-S1P as radioligand
parameter: IC50 (nM)

Observe how each entry below is paired with its result.
molecule=CCCCCCCCCc1ccc(CNCCCP(O)O)cc1 parameter=IC50 reported_measurement=900
molecule="CCCCCCCCCCCCCCC(N)CCP(=O)(O)O (configuration not stated)" parameter=IC50 reported_measurement=76
molecule=CCCCCCCCCCCCCCNCCCP(=O)(O)O parameter=IC50 reported_measurement=140
molecule="CCCCCCCCCCCCCCCC(N)CCP(=O)(O)O (configuration not stated)" parameter=IC50 reported_measurement=1400
molecule="CCCCCCCCCCCCCC(N)CCP(=O)(O)O (configuration not stated)" parameter=IC50 reported_measurement=140

(a) O=P(O)(O)CCCNCCCCCCCCCCc1ccccc1
(b) CCCCCCCCCc1ccc(CNCC(O)CC(=O)O)cc1 (configuration not stated)
In: Among a and b , which shows a numerically higher IC50 result? Output the label that corresponds to your choice.
Out: b
(b: 1400 nM, a: 140 nM)
